system.tested: Bcl-xL (Homo sapiens)
Construct: myc-Bcl-xL SPOT array & FP; made in house
Sequence (Q07817 with tags, fused parts or gaps): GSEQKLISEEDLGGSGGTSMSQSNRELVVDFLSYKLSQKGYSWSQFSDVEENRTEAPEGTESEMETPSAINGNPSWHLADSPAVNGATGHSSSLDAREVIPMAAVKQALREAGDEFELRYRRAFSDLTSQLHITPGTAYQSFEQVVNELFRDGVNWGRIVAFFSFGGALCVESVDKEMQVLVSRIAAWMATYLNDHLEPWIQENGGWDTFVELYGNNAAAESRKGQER
assay: Fluorescence polarization direct binding
experimental.setup: FP direct binding; 10 nM FAM-labeled peptide, receptor titrated; 25°C, pH 7.8; fit of all replicate titrations; X+number in a cell = highest concentration (nM) measured with no binding detected, given here as >; SPNS1 fit to raw fluorescence; read-out: Best-fit KD, Bcl-xL
No end group written: not given here.
// NB: equality with 1000 nM counts as NO; only Kd strictly below is YES

Worked examples, 4 substances total:
substance="RSMVFARHLREVGDEFRSRHLNS-NH2 [POFUT2]" system_tested="Bcl-xL (Homo sapiens)" qualitative_label=YES
substance="RVEQMAIQIKEVGDRVNYIKRSL-NH2 [TRPM7]" system_tested="Bcl-xL (Homo sapiens)" qualitative_label=YES
substance="PILENPEILRKTADDFLNRIALT-NH2 [CCH]" system_tested="Bcl-xL (Homo sapiens)" qualitative_label=NO
substance="FTGNNTAVQELKRVSEQFTATFRRKA-NH2 [TUBB4Q]" system_tested="Bcl-xL (Homo sapiens)" qualitative_label=NO

**Q:** Strictly below 1000 nM: is that where Kd of LRLFLAQRLRWLADSAPASRATA-NH2 [NBEAL2] sits?
**A:** YES

**Q:** Strictly below 1000 nM: is that where Kd of ATKRETAATFLKKVAKEFGFQNNGFS-NH2 [NPLOC4] sits?
**A:** NO

**Q:** Strictly below 1000 nM: is that where Kd of KREKLVEILRNIGDERTMVFVET-NH2 [DDX4] sits?
**A:** NO

**Q:** Strictly below 1000 nM: is that where Kd of LMARPAVALHFQSIADGFKEAVRYVL-NH2 [SOS2] sits?
**A:** NO

**Q:** Strictly below 1000 nM: is that where Kd of SKFVILSAHKLVFIGDTLSRQAKAAD-NH2 [BCAR1] sits?
**A:** NO

**Q:** Strictly below 1000 nM: is that where Kd of LSDGLPVHLANIADELTQKKKMF-NH2 [AGBL2] sits?
**A:** NO

**Q:** Strictly below 1000 nM: is that where Kd of RYRHGAPAEQLRHLADMLTTKWATLQ-NH2 [PLEKHH1] sits?
**A:** YES

**Q:** Strictly below 1000 nM: is that where Kd of APYYLSRNLKQQADIIFMPYNYL-NH2 [RTEL1] sits?
**A:** NO

**Q:** Strictly below 1000 nM: is that where Kd of KKMTLSEIYRWIADNFPYYKNAG-NH2 [FOXJ2] sits?
**A:** YES

**Q:** Strictly below 1000 nM: is that where Kd of EVLAGPLAQRLSHIAEDVGRLVKKSR-NH2 [ARHGAP4] sits?
**A:** NO

**Q:** Strictly below 1000 nM: is that where Kd of QRKHEGFERDLAALGDKVNSLGETAE-NH2 [SPTAN1] sits?
**A:** NO

**Q:** Strictly below 1000 nM: is that where Kd of AIRPRAVELRHLADDFINGNKKK-NH2 [MCF2L2] sits?
**A:** YES

**Q:** Strictly below 1000 nM: is that where Kd of THEEVVHLLRNAGDEVTITVEYL-NH2 [SNTG2] sits?
**A:** NO

**Q:** Strictly below 1000 nM: is that where Kd of ELQELARKLQELADASENLLTEN-NH2 [TXNDC11] sits?
**A:** NO

**Q:** Strictly below 1000 nM: is that where Kd of AWGKFGGAFARYADEMKEIQERQ-NH2 [PURB] sits?
**A:** NO

**Q:** Strictly below 1000 nM: is that where Kd of SYMVLAPVFGYLGDRYNRKYLMA-NH2 [SPNS1] sits?
**A:** YES

**Q:** Strictly below 1000 nM: is that where Kd of GDSVLARMLRELGDSLRRPQLRL-NH2 [SLC19A1] sits?
**A:** NO

---

system.tested: Bfl-1 (Homo sapiens, UniProt Q16548)
Construct: myc- Bfl-1 SPOT array & FP; made in house
Sequence (Q16548 with tags, fused parts or gaps): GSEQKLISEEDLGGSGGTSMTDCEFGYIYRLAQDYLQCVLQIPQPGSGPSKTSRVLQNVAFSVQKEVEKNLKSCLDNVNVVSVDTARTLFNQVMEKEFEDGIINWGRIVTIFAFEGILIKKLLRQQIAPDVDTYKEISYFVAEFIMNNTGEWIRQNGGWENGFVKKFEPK
assay: Fluorescence polarization direct binding
experimental.setup: FP direct binding; 10 nM FAM-labeled peptide, receptor titrated; 25°C, pH 7.8; fit of all replicate titrations; X+number in a cell = highest concentration (nM) measured with no binding detected, given here as >; SPNS1 fit to raw fluorescence; read-out: Best-fit KD, Bfl-1
No end group written: not given here.
metric.name: Kd

Would you please look over these solved cases?
substance="AIRPRAVELRHLADDFINGNKKK-NH2 [MCF2L2]" system_tested="Bfl-1 (Homo sapiens, UniProt Q16548)" readout_value="> 3370 nM"
substance="GDSVLARMLRELGDSLRRPQLRL-NH2 [SLC19A1]" system_tested="Bfl-1 (Homo sapiens, UniProt Q16548)" readout_value="182 nM"

**Q:** Requested read-out Kd, target or system Bfl-1 (Homo sapiens, UniProt Q16548), entry PILENPEILRKTADDFLNRIALT-NH2 [CCH]
**A:** > 9610 nM

**Q:** Requested read-out Kd, target or system Bfl-1 (Homo sapiens, UniProt Q16548), entry FIQSLAAMLKQYADKLEFMHILT-NH2 [CASP3]
**A:** 43 nM

**Q:** Requested read-out Kd, target or system Bfl-1 (Homo sapiens, UniProt Q16548), entry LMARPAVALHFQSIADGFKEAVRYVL-NH2 [SOS2]
**A:** > 3290 nM

**Q:** Requested read-out Kd, target or system Bfl-1 (Homo sapiens, UniProt Q16548), entry THEEVVHLLRNAGDEVTITVEYL-NH2 [SNTG2]
**A:** > 4070 nM

**Q:** Requested read-out Kd, target or system Bfl-1 (Homo sapiens, UniProt Q16548), entry ELQELARKLQELADASENLLTEN-NH2 [TXNDC11]
**A:** > 10000 nM

---

Property: pKd; scope: individual substances
system.tested: Mcl-1 (Homo sapiens)
Construct: myc-Mcl-1 SPOT array & FP; made in house
Sequence (Q07820 with tags, fused parts or gaps): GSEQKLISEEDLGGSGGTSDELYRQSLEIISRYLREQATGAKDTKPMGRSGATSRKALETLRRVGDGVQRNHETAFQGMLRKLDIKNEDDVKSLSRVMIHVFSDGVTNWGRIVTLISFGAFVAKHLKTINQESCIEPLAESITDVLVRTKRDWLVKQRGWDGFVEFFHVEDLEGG
assay: Fluorescence polarization direct binding
experimental.setup: Binder class, Mcl-1, benchmark classification of peptides newly characterized in this study
pKd: −log10 of the molar value. No end group written: not given here.

Would you please look over these solved cases?
substance="KREKLVEILRNIGDERTMVFVET-NH2 [DDX4]" metric_name=pKd readout_value="> 6.00"
substance="LRLFLAQRLRWLADSAPASRATA-NH2 [NBEAL2]" metric_name=pKd readout_value="5.00 to 6.00"
substance="APYYLSRNLKQQADIIFMPYNYL-NH2 [RTEL1]" metric_name=pKd readout_value="5.00 to 6.00"
substance="AIRPRAVELRHLADDFINGNKKK-NH2 [MCF2L2]" metric_name=pKd readout_value="< 5.00"
substance="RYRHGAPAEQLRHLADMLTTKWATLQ-NH2 [PLEKHH1]" metric_name=pKd readout_value="< 5.00"

**Q:** Look up pKd for this substance: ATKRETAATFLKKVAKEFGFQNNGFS-NH2 [NPLOC4]
**A:** 5.00 to 6.00

**Q:** Look up pKd for this substance: KKMTLSEIYRWIADNFPYYKNAG-NH2 [FOXJ2]
**A:** < 5.00

**Q:** Look up pKd for this substance: GDSVLARMLRELGDSLRRPQLRL-NH2 [SLC19A1]
**A:** > 6.00

**Q:** Look up pKd for this substance: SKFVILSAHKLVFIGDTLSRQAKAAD-NH2 [BCAR1]
**A:** < 5.00

**Q:** Look up pKd for this substance: SYMVLAPVFGYLGDRYNRKYLMA-NH2 [SPNS1]
**A:** > 6.00

**Q:** Look up pKd for this substance: PILENPEILRKTADDFLNRIALT-NH2 [CCH]
**A:** < 5.00

**Q:** Look up pKd for this substance: LSDGLPVHLANIADELTQKKKMF-NH2 [AGBL2]
**A:** < 5.00

---

system.tested: Bfl-1 (Homo sapiens, UniProt Q16548)
Construct: myc- Bfl-1 SPOT array & FP; made in house
assay: Fluorescence polarization direct binding
experimental.setup: benchmark classification of peptides newly characterized in this study; read-out: Binder class, Bfl-1
No end group written: not given here.
metric.name: Kd

Would you please look over these solved cases?
substance="KKMTLSEIYRWIADNFPYYKNAG-NH2 [FOXJ2]" readout_value="> 10 µM"
substance="LRLFLAQRLRWLADSAPASRATA-NH2 [NBEAL2]" readout_value="1 to 10 µM"
substance="KREKLVEILRNIGDERTMVFVET-NH2 [DDX4]" readout_value="> 10 µM"
substance="RVEQMAIQIKEVGDRVNYIKRSL-NH2 [TRPM7]" readout_value="1 to 10 µM"
substance="ELQELARKLQELADASENLLTEN-NH2 [TXNDC11]" readout_value="> 10 µM"

Next, consider the following substance.
**Q:** Look up Kd for this substance: ATRRLSGFLRTLADRLEGTKELL-NH2 [MINA]
**A:** 1 to 10 µM
